Tested on: A. xylosoxidans 37F
protocol_notes: Antimicrobial microdilution assay (MIC/MBC)
Assay type: cell-based, Achromobacter xylosoxidans
condition_details: Achromobacter xylosoxidans, 37F; 37 °C, 24 h; read-out: MIC

>  <compound>
O=C1C[C@@H](c2ccc(O)cc2)Oc2cc(O)cc(O)c21

>  <MIC>
1000 µg/mL

$$$$
>  <compound>
[H]/N=C(/N)N[C@H]1[C@H](O)[C@@H](O)[C@H](O[C@@H]2O[C@@H](C)[C@](O)(C=O)[C@H]2O[C@@H]2O[C@@H](CO)[C@H](O)[C@@H](O)[C@@H]2NC)[C@@H](N/C(N)=N\[H])[C@@H]1O [Streptomycin, reference compound]

>  <MIC>
> 1000 µg/mL

$$$$
>  <compound>
COc1ccc([C@@H]2CC(=O)c3c(O)cc(O)cc3O2)cc1O

>  <MIC>
1000 µg/mL

$$$$
>  <compound>
C[C@@H]1O[C@@H](OC[C@H]2O[C@@H](Oc3c(-c4ccc(O)c(O)c4)oc4cc(O)cc(O)c4c3=O)[C@H](O)[C@@H](O)[C@@H]2O)[C@H](O)[C@H](O)[C@H]1O

>  <MIC>
500 µg/mL

$$$$
>  <compound>
O=C1c2c(O)cc(O)cc2OC(c2ccc(O)c(O)c2)C1O (stereo not shown)

>  <MIC>
1000 µg/mL

$$$$
>  <compound>
O=C(/C=C/c1ccc(O)c(O)c1)O[C@@H]1C[C@](O)(C(=O)O)C[C@@H](O)[C@H]1O

>  <MIC>
1000 µg/mL

$$$$
>  <compound>
O=c1c(O)c(-c2ccc(O)cc2O)oc2cc(O)cc(O)c12

>  <MIC>
500 µg/mL

$$$$
